Values of IC50 for Serine/threonine-protein kinase mTOR (Homo sapiens), collected from a number of published sources:
Exam item: assign criterion met to entries whose IC50 is below 7 nM and criterion not met to entries at or above 7 nM. Note that a value of exactly 7 nM receives criterion not met.

compound | assignedLabel
C[C@H]1COCCN1c1nc(-c2ccc(NC(=O)Nc3ccc4c(c3)COC4=O)cc2)nc(N2C3CCC2COC3)n1 | criterion met
CN1CCN(CCC(=O)Nc2ccc3c(c2)Sc2cccc(-c4cc(=O)cc(N5CCOCC5)o4)c2S3)CC1 | criterion not met
CO[C@H]1C[C@@H]2CC[C@@H](C)[C@@](O)(O2)C(=O)C(=O)N2CCCC[C@H]2C(=O)O[C@H]([C@H](C)C[C@@H]2CC[C@@H](OCCO)[C@H](OC)C2)CC(=O)[C@H](C)/C=C(\C)[C@@H](O)[C@@H](OC)C(=O)[C@H](C)C[C@H](C)/C=C/C=C/C=C/1C | criterion not met
C[C@@H]1COCCN1c1nc(N2CCOC[C@@H]2C)nc2sc(-c3cccc4[nH]ccc34)nc12 | criterion not met
Nc1ncc(-c2nc(-c3ccc(CN4CCOCC4)s3)nc(N3CCOCC3)n2)cn1 | criterion not met
CNC(=O)Nc1ncc(-c2nc(-c3ccc(CN4CCN(S(C)(=O)=O)CC4)s3)nc(N3CCOCC3)n2)cn1 | criterion not met
C=C1C(=O)OCC1C(=O)N1Cc2cc3ccccc3nc2C1 (configuration not stated) | criterion not met
O=C(Nc1ccc(C(=O)N2CCC[C@@H]2CO)cc1)Nc1ccc(-c2nc(N3CCOCC3)nc(N3CCOCC3)n2)cc1 | criterion met
CN1CCN(C(=O)c2ccc(NC(=S)Nc3ccc(-c4nc(N5CCOCC5)nc(N5CCOCC5)n4)cc3)cc2)CC1 | criterion not met
O=C(Nc1ccc(C(=O)N2CCC[C@H]2CO)cc1)Nc1ccc(-c2nc(N3CCOCC3)nc(N3CCOCC3)n2)cc1 | criterion met
